# Test system: Saccharomyces cerevisiae
# procedureText: fraction of cells in G1 phase (DNA content, flow cytometry); higher = more cells with unreplicated DNA (G1 delay)
# measurementContext: temperature: 30 C; YPD; JTY2953 pdr5 snq2 (sensitized); drug added to: cultures diluted from stationary phase; 6-7 h
Returns t if the recorded fraction of cells in G1 phase is greater than or equal to 0.5, and f otherwise.

Reference set (4 entries):
>>> classassignment("CN1C(C(=O)Nc2ccccn2)=C(O)c2sccc2S1(=O)=O [Tenoxicam] (59.2806 µM)")
"f"
>>> classassignment("C/C=C/c1ccc(OC)cc1 [Anethole, trans-] (134.947 µM)")
"t"
>>> classassignment("COc1cc2nc(N(C)CCCNC(=O)C3CCCO3)nc(N)c2cc1OC (stereo unspecified) [Alfuzosin] (51.3611 µM)")
"t"
>>> classassignment("CCN(CC)CCCC(C)Nc1c2ccc(Cl)cc2nc2ccc(OC)cc12 (stereo unspecified) [Quinacrine 2HCl dihydrate] (50.004 µM)")
"t"

Check if fraction of cells in G1 phase >= 0.5 (inclusive). Item: CS(=O)(=O)CCNCc1ccc(-c2ccc3ncnc(Nc4ccc(OCc5cccc(F)c5)c(Cl)c4)c3c2)o1 [Lapatinib] (34.4192 µM)
t

Check if fraction of cells in G1 phase >= 0.5 (inclusive). Item: CC(=O)O[C@]1(C(C)=O)CC[C@H]2[C@@H]3C=C(Cl)C4=CC(=O)[C@@H]5C[C@@H]5[C@]4(C)[C@H]3CC[C@@]21C [Cyproterone acetate] (47.9675 µM)
t

Check if fraction of cells in G1 phase >= 0.5 (inclusive). Item: COc1ccccc1N1CCN(CC(O)COc2cccc3ccccc23)CC1 (stereo unspecified) [Naftopidil 2HCl] (50.9551 µM)
t

Check if fraction of cells in G1 phase >= 0.5 (inclusive). Item: CCCCCOC(=O)Nc1nc(=O)n([C@@H]2O[C@H](C)[C@@H](O)[C@H]2O)cc1F [Capecitabine] (55.6483 µM)
f

* * *

Exercise: for every item that follows, state its recorded fraction of cells in G1 phase.
# System: Saccharomyces cerevisiae
# procedureText: fraction of cells in G1 phase (DNA content, flow cytometry); higher = more cells with unreplicated DNA (G1 delay)
# measurementContext: temperature: 30 C; YPD; JTY2953 pdr5 snq2 (sensitized); drug added to: cultures diluted from stationary phase; 6-7 h
Counter-ions that a name gives are not always drawn.
One number for each entry.

Reference set (8 entries):
>>> testvalue("COc1ccc2[nH]c([S+]([O-])Cc3ncc(C)c(OC)c3C)nc2n1 (configuration not stated) [Tenatoprazole] (57.7349 µM)")
0.486
>>> testvalue("COc1cc2ncnc(Nc3ccc(F)c(Cl)c3)c2cc1OCCCN1CCOCC1 [Gefitinib] (44.7514 µM)")
0.535
>>> testvalue("C[C@@H](O)[C@@H]1NC(=O)[C@H](CCCCN)NC(=O)[C@@H](Cc2c[nH]c3ccccc23)NC(=O)[C@H](Cc2ccccc2)NC(=O)[C@@H](NC(=O)[C@H](N)Cc2ccccc2)CSSC[C@@H](C(=O)N[C@H](CO)[C@@H](C)O)NC1=O [Octreotide] (19.6221 µM)")
0.478
>>> testvalue("CCC(C)(C)c1ccc(CC(C)CN2C[C@@H](C)O[C@@H](C)C2)cc1 (some centres not stated) [Amorolfine] (62.9883 µM)")
0.841
>>> testvalue("CCC(C)n1ncn(-c2ccc(N3CCN(c4ccc(OCC5COC(Cn6cncn6)(c6ccc(Cl)cc6Cl)O5)cc4)CC3)cc2)c1=O (configuration not stated) [Itraconazole] (28.3427 µM)")
0.667
>>> testvalue("COC(=O)N/N=C/c1c[n+]([O-])c2ccccc2[n+]1[O-] [Carbadox] (76.2699 µM)")
0.414
>>> testvalue("CC(Oc1c(Cl)cccc1Cl)C1=NCCN1 (configuration not stated) [Lofexidine] (77.1792 µM)")
0.483
>>> testvalue("Nc1ccn([C@@H]2O[C@H](CO)[C@@H](O)C2(F)F)c(=O)n1 [Gemcitabine HCl] (75.9871 µM)")
0.49

Report fraction of cells in G1 phase for every entry below.
1. O=P(O)(O)C(O)(Cc1cccnc1)P(=O)(O)O [Risedronic acid] (70.6425 µM)
2. CN1CCCCC1CCN1c2ccccc2Sc2ccc([S+](C)[O-])cc21 (configuration not stated) [Mesoridazine besylate] (51.7354 µM)

[0.463, 0.476]
